target: Neisseria gonorrhoeae FabI (Neisseria gonorrhoeae, UniProt A0ACH0F547); assay: Neisseria gonorrhoeae FabI inhibition assay (NADH consumption)
Sequence (A0ACH0F547 1-261): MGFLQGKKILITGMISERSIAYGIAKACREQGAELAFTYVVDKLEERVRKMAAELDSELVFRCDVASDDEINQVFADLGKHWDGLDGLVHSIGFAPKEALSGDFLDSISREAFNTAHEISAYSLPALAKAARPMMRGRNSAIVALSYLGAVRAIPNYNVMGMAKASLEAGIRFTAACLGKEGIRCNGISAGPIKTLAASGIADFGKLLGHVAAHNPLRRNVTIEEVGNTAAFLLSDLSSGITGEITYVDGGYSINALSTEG
quantity.name: IC50

> print(dat)
                                   compound                              study.system  quantity.name  reported.value
1  Cc1oc2c(Oc3ccc4c(c3)OCO4)cccc2c1CN(C)C(=O)/C=C/c1cnc2c(c1)NC[C@@](C)(O)C(=O)N2  Neisseria gonorrhoeae FabI (Neisseria gonorrhoeae, UniProt A0ACH0F547)           IC50         < 10 nM

Query: What value of IC50 has been reported for the following compound? Cc1c(CN(C)C(=O)/C=C/c2cnc3c(c2)NCC2(CC(O)C2)C(=O)N3)oc2ccccc12 (stereo not drawn)
Reply: < 10 nM

Query: What value of IC50 has been reported for the following compound? Cc1oc2ccccc2c1CN(C)C(=O)/C=C/c1cnc2c(c1)N[C@H](C)[C@H](O)C(=O)N2 (single isomer, unassigned)
Reply: < 10 nM

----------
test system: Neisseria gonorrhoeae; experiment: MIC50 by CLSI agar dilution on a panel of N. gonorrhoeae clinical isolates; assay type: cell-based; details: Neisseria gonorrhoeae; agar dilution, GC agar base, minimum of 15 clinical isolates; read-out: MIC50
Below: a set of entries, each annotated with reported MIC50.

> print(dat)
                            compound.string  reported.value
1  Cc1oc2ccccc2c1CN(C)C(=O)/C=C/c1cnc2c(c1)NCCC(=O)N2       < 1 µg/mL
2  Cc1oc2c(N)cccc2c1CN(C)C(=O)/C=C/c1cnc2c(c1)CCCC(=O)N2       < 1 µg/mL
3  Cc1c(CN(C)C(=O)/C=C/c2cnc3c(c2)NCCC(=O)N3)oc2cccc(N)c12       < 1 µg/mL

Let us examine a further case.
Query: What value of MIC50 has been reported for the following molecule? "Cc1c(CN(C)C(=O)/C=C/c2cnc3c(c2)NC[C@H](O)C(=O)N3)oc2ccccc12"
Reply: < 1 µg/mL

----------
test: Mouse cassette PK and oral bioavailability determination; type: in vivo, Female BALB/c mice; details: female, BALB/c, mouse, plasma; iv 1 mg/kg, po 2 mg/kg, cassette dosing; read-out: Mouse F (%)
Label t when bioavailability >= 30%; otherwise f.

# example entries with known answers
> print(dat)
                                    molecule  class.label
 1  COc1cccc(Oc2cccc3c(CN(C)C(=O)/C=C/c4cnc5c(c4)NCCC(=O)N5)c(C)oc23)c1 [Compound 155]            f
 2  COc1cccc(Oc2cccc3c(CN(C)C(=O)/C=C/c4cnc5c(c4)NC[C@@](C)(O)C(=O)N5)c(C)oc23)c1 [Compound 183]            f
 3  COc1cc(Oc2ccc(C3=C[C@H]4CN(C(=O)/C=C/c5cnc6c(c5)NCCC(=O)N6)C[C@H]4C3)cc2)ccc1C#N [Compound 140]            f
 4  Cc1oc2c(Oc3ccc(C#N)cc3)cccc2c1CN(C)C(=O)/C=C/c1cnc2c(c1)NCCC(=O)N2 [Compound 80]            t
 5  Cc1oc2c(Oc3ccc4c(c3)N(C)CC4)cccc2c1CN(C)C(=O)/C=C/c1cnc2c(c1)NCCC(=O)N2 [Compound 134]            f
 6  Cc1c(CN(C)C(=O)/C=C/c2cnc3c(c2)NCC2(CC(O)C2)C(=O)N3)oc2ccccc12 (stereo not drawn) [Compound 115]            f
 7  Cc1oc2c(Oc3ccc4c(c3)OCO4)cccc2c1CN(C)C(=O)/C=C/c1cnc2c(c1)NC[C@@](C)(O)C(=O)N2 [Compound 176]            t
 8  O=C1CCNc2cc(/C=C/C(=O)N3C[C@H]4CC(c5ccc(Oc6cncs6)cc5)=C[C@H]4C3)cnc2N1 [Compound 96]            f
 9  COc1cccc(Oc2cccc3c(CN(C)C(=O)/C=C/c4cnc5c(c4)CCCC(=O)N5)c(C)sc23)c1 [Compound 194]            f
10  Cc1c(CN(C)C(=O)/C=C/c2cnc3c(c2)NC[C@H](O)C(=O)N3)oc2cccc(N)c12 [Compound 275]            t

Query: Entry Cc1oc2c(N)cccc2c1CN(C)C(=O)/C=C/c1cnc2c(c1)NC[C@H](O)C(=O)N2 [Compound 276] : is its bioavailability no less than 30%?
Reply: t

Query: Entry COc1cccc(Oc2ccc(C3=C[C@H]4CN(C(=O)/C=C/c5cnc6c(c5)NCCC(=O)N6)C[C@H]4C3)cc2)c1 [Compound 129] : is its bioavailability no less than 30%?
Reply: f

----------
target: Chlamydia trachomatis FabI (Chlamydia trachomatis serovar D (strain ATCC VR-885 / DSM 19411 / UW-3/Cx)); assay: Chlamydia trachomatis FabI inhibition assay (NADH consumption); settings: read-out: CT FABI IC50; recombinant C. trachomatis FabI, 30° C., pH 7.0
Sequence (O84106 1-298): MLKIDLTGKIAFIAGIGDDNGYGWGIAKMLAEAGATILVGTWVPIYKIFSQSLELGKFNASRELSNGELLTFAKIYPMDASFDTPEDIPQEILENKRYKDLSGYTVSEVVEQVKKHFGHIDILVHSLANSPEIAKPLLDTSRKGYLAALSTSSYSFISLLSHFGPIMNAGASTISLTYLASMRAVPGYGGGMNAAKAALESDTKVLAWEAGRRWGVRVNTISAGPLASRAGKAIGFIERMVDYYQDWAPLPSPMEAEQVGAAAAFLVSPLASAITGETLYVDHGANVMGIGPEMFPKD
Below: a set of entries, each annotated with reported IC50.

> print(dat)
                            compound.string  reported.value
1  Cc1c(CN(C)C(=O)/C=C/c2cnc3c(c2)NC[C@H](O)C(=O)N3)oc2cccc(N)c12          < 5 µM

Let us examine a further case.
Query: What value of IC50 has been reported for the following compound? "COc1cccc(Oc2cccc3c(CN(C)C(=O)/C=C/c4cnc5c(c4)NCCC(=O)N5)c(C)oc23)c1"
Reply: < 1 µM

----------
experiment: Prediction of hepatic extraction ratio from liver microsome stability; type: in vitro ADME; conditions: human liver microsomes, Well-Stirred model
quantity.name: Predict Human hep ER
Output spec: single numeric token, no unit.

Below are worked cases with known answers.
> print(dat)
                                   compound  reported.value
1  COc1cccc(Oc2cccc3c(CN(C)C(=O)/C=C/c4cnc5c(c4)NCCC(=O)N5)c(C)oc23)c1            0.32
2  Cc1oc2c(N)cccc2c1CN(C)C(=O)/C=C/c1cnc2c(c1)NC(C)(C)C(=O)N2            0.34
3  O=C1CCNc2cc(/C=C/C(=O)N3C[C@H]4CC(c5ccc(Oc6ccncc6)cc5)=C[C@H]4C3)cnc2N1 (racemic)            0.03
4  O=C1CCNc2cc(/C=C/C(=O)N3C[C@H]4CC(c5ccc(Oc6cncs6)cc5)=C[C@H]4C3)cnc2N1             0.2

Query: What value of Predict Human hep ER has been reported for the following compound? Cc1c(CN(C)C(=O)/C=C/c2cnc3c(c2)NCC2(CC(O)C2)C(=O)N3)oc2ccccc12 (centres unmarked)
Reply: 0.28

Query: What value of Predict Human hep ER has been reported for the following compound? "COc1cccc(Oc2ccc(C3=C[C@H]4CN(C(=O)/C=C/c5cnc6c(c5)NCCC(=O)N6)C[C@H]4C3)cc2)c1"
Reply: 0.02

Query: What value of Predict Human hep ER has been reported for the following compound? "Cc1oc2c(Oc3ccc4c(c3)N(C)CC4)cccc2c1CN(C)C(=O)/C=C/c1cnc2c(c1)NCCC(=O)N2"
Reply: 0.43

Query: What value of Predict Human hep ER has been reported for the following compound? "Cc1oc2c(N)cccc2c1CN(C)C(=O)/C=C/c1cnc2c(c1)N[C@H](C)[C@H](O)C(=O)N2"
Reply: 0.1

----------
experiment: Prediction of hepatic extraction ratio from liver microsome stability; assay type: in vitro ADME; details: human liver microsomes, Well-Stirred model
quantity.name: Predict Human hep ER
Output spec: single numeric token, no unit.

Below are worked cases with known answers.
> print(dat)
                            compound.string  reported.value
1  Cc1oc2c(Oc3ccc4c(c3)OCO4)cccc2c1CN(C)C(=O)/C=C/c1cnc2c(c1)NCCC(=O)N2            0.08
2  COc1cc(Oc2ccc(C3=C[C@H]4CN(C(=O)/C=C/c5cnc6c(c5)NCCC(=O)N6)C[C@H]4C3)cc2)ccc1C#N            0.13

Query: What value of Predict Human hep ER has been reported for the following compound? "Cc1oc2c(Oc3ccc4c(c3)OCO4)cccc2c1CN(C)C(=O)/C=C/c1cnc2c(c1)NC[C@@](C)(O)C(=O)N2"
Reply: 0.07

Query: What value of Predict Human hep ER has been reported for the following compound? "Cc1oc2c(Oc3ccc(C#N)cc3)cccc2c1CN(C)C(=O)/C=C/c1cnc2c(c1)NCCC(=O)N2"
Reply: 0.25

----------
Assay: Caco-2 permeability assay
Type: in vitro ADME
Settings: human, Caco-2; A2B, 120 min incubation
Procedure: Caco-2 assay: Compounds were incubated in a Caco-2 24-transwell system (Solvo Biotechnologies, Hungary) for 120 min, after which samples were taken from the donor and acceptor compartments of the transwell system. […] The samples were analyzed using UPLC/MS/MS. The permeation of the compounds was monitored using relative LC/MS/MS peak areas (initial donor solution sample=100%).
quantity.name: Papp A→B at 120 min (×10⁻⁶ cm/s)
Give just the number in ×10⁻⁶ cm/s; leave the unit off.

Query: What value of Papp A→B at 120 min has been reported for the following molecule? Cc1c(CN(C)C(=O)/C=C/c2cnc3c(c2)NCC2(CC(O)C2)C(=O)N3)oc2ccccc12 (stereo not shown) [Compound 115]
Reply: 3.4
